- Test system: HT-29
- experimental.details: NCI tumour cell line growth inhibition, 48 h
Activity calls are given as the source filed them. No stated cut-off is given here; in the data, active = GI50 up to about 1.1 µM and inactive = higher.
Some compounds, each annotated with its measured GI50.

[
  {
    "compound": "O=c1oc2ccc([N+](=O)[O-])cc2c(Nc2ccc3c(c2)S(=O)(=O)c2ccccc2O3)c1[N+](=O)[O-]",
    "GI50": "65.9 µM (inactive)"
  },
  {
    "compound": "Cc1nn(C(=O)c2ccc(Cl)cc2)c2c1C(c1ccccc1O)SC(=N)N2 (stereo not given)",
    "GI50": "> 10 µM (inactive)"
  },
  {
    "compound": "CC(C)(Cl)C(Br)CC/C(=C/CCl)CBr.CC(C)(Cl)C(Br)CC/C(=C\\CCl)CBr (stereo not given)",
    "GI50": "1.85 µM (inactive)"
  },
  {
    "compound": "Oc1[nH]c(NCc2ccc(Cl)cc2)nc2ncnc1-2",
    "GI50": "> 100 µM (inactive)"
  },
  {
    "compound": "N/N=C(\\C(=O)Nc1ccc([N+](=O)[O-])cc1)C(C1=Nc2cc([N+](=O)[O-])ccc2NC1)[N+](=O)[O-] (stereo not given)",
    "GI50": "72.4 µM (inactive)"
  }
]

---

- System: UACC-62
- experimental.details: NCI tumour cell line growth inhibition, 48 h
Active and inactive are the calls of the source. Cut-off read from the data, not from the text of the source: active = GI50 up to about 1.1 µM and inactive = higher.

[
  {
    "compound": "CCOC(=O)C1=C(C)OC2(O)C=CC(O)=C3C(=O)N(c4ccccc4)C(=O)C312 (stereo not given)",
    "tested.on": "UACC-62",
    "GI50": "29.9 µM (inactive)"
  },
  {
    "compound": "N#Cc1ccc(Oc2nc3ccccc3nc2-c2ccccc2)cc1",
    "tested.on": "UACC-62",
    "GI50": "> 100 µM (inactive)"
  },
  {
    "compound": "O=c1oc2ccc(-n3c(=O)c4ccccc4c4ccccc4c3=O)cc2c2ccccc12",
    "tested.on": "UACC-62",
    "GI50": "64.6 µM (inactive)"
  },
  {
    "compound": "S=C(NC/C(Br)=C/Br)Nc1cccc2ccccc12",
    "tested.on": "UACC-62",
    "GI50": "24.2 µM (inactive)"
  },
  {
    "compound": "CCCCNC(=S)Nc1nc(C(=O)NNC(=S)NCc2ccccc2)cs1",
    "tested.on": "UACC-62",
    "GI50": "19 µM (inactive)"
  },
  {
    "compound": "COc1ccc(-c2cs/c(=N\\c3ccccc3)n2CCCN(C)C)cc1",
    "tested.on": "UACC-62",
    "GI50": "15.1 µM (inactive)"
  },
  {
    "compound": "c1cc2cc(c1)CN1CCNCCN(CCNCC1)Cc1cccc(c1)CN1CCNCCN(CCNCC1)C2",
    "tested.on": "UACC-62",
    "GI50": "> 100 µM (inactive)"
  },
  {
    "compound": "O=C(OCc1ccccc1)c1ccc(NCc2cc(O)ccc2O)cc1",
    "tested.on": "UACC-62",
    "GI50": "1.56 µM (inactive)"
  },
  {
    "compound": "O=c1c2cccnc2[s+]([O-])n1Cc1ccccc1 (stereo not given)",
    "tested.on": "UACC-62",
    "GI50": "> 100 µM (inactive)"
  },
  {
    "compound": "N#CCN1C(=O)c2cc([N+](=O)[O-])cc3cc([N+](=O)[O-])cc(c23)C1=O",
    "tested.on": "UACC-62",
    "GI50": "12.4 µM (inactive)"
  }
]

---

- Test system: U-251
- experimental.details: NCI tumour cell line growth inhibition, 48 h
The source made the active and inactive calls. No stated cut-off is given here; in the data, active = GI50 up to about 1.1 µM and inactive = higher.
Outcomes: active, inactive

[
  {
    "compound": "CNC(Cc1ccccc1)c1cccc(OC)c1O (stereo unspecified)",
    "class": "inactive"
  },
  {
    "compound": "COc1cc(C)c(CC/C(C)=C/Cc2cc(O)ccc2O)c(C)c1C [PANICEIN A HYDROQUINONE]",
    "class": "inactive"
  },
  {
    "compound": "COc1cc(C2c3cc4c(cc3[C@@H](Nc3cccc(CO)c3)C3COC(=O)[C@H]23)OCO4)cc(OC)c1O (stereo partly specified)",
    "class": "active"
  },
  {
    "compound": "COc1ccc2nc(N/N=C/c3ccc(C)s3)cc(C)c2c1",
    "class": "inactive"
  },
  {
    "compound": "CCN(CC)CCNc1n[n+]([O-])c2cc([N+](=O)[O-])ccc2[n+]1[O-]",
    "class": "active"
  },
  {
    "compound": "COc1cccc(/C(CC(O)(C(F)(F)F)C(F)(F)F)=N\\N(C)C)c1",
    "class": "inactive"
  },
  {
    "compound": "OC1(c2ccc(Cl)cc2)c2ccc3ccccc3c2C2=N[C@H]3CCCC[C@@H]3N21 (stereo partly specified)",
    "class": "inactive"
  },
  {
    "compound": "Cc1nn(-c2ccccc2)c2c1N=C(C(=O)O)CC(c1ccccc1)=N2",
    "class": "inactive"
  },
  {
    "compound": "CCCCNc1nc(N)nc(Nc2ccc(Br)cc2)c1N=O",
    "class": "inactive"
  },
  {
    "compound": "CCCOP(=S)(N1CC1)N1CC1",
    "class": "inactive"
  },
  {
    "compound": "CCCC1(N2C(=O)c3ccc4c5c(ccc(c35)C2=O)N(C2(CCC)CCCCC2)C4=O)CCCCC1",
    "class": "inactive"
  },
  {
    "compound": "CC(C)(Cl)C(Br)CC/C(=C/CCl)CBr.CC(C)(Cl)C(Br)CC/C(=C\\CCl)CBr (stereo unspecified)",
    "class": "inactive"
  },
  {
    "compound": "CCOC(=O)c1c(NCc2ccccc2)n(-c2ccccc2)c(=S)n(-c2ccccc2)c1=O",
    "class": "inactive"
  },
  {
    "compound": "O=C1C=C(OCCCl)C(=O)c2c(O)ccc(O)c21",
    "class": "inactive"
  },
  {
    "compound": "O=C(O/N=c1/ccc(=O)/c(=N\\OC(=O)c2ccccc2)c1=O)c1ccccc1",
    "class": "inactive"
  },
  {
    "compound": "CCOC(=O)c1[nH]c(COC(C)=O)c(CCCOC(C)=O)c1CCCOC(C)=O",
    "class": "inactive"
  },
  {
    "compound": "COc1cc([N+](=O)[O-])c(S(=O)(=O)O)cc1NS(=O)(=O)c1ccc(C)cc1",
    "class": "inactive"
  },
  {
    "compound": "Cn1c(=O)n(-c2c3ccccc3c(Cl)c3ccccc23)n(C(C)(C)C)c1=O",
    "class": "inactive"
  },
  {
    "compound": "Cc1cc2nc(-c3c(F)cccc3F)n(Cc3c(F)cccc3F)c2cc1C",
    "class": "inactive"
  },
  {
    "compound": "CCOC(=O)N1CCN(c2nc(C)n(-c3ccccc3)c(=S)c2C#N)CC1",
    "class": "inactive"
  },
  {
    "compound": "Clc1ccc(Oc2ccc(/N=C/c3ccc(Cl)cc3Cl)cc2Cl)cc1",
    "class": "inactive"
  }
]

---

- Tested on: LOX IMVI
- experimental.details: NCI tumour cell line growth inhibition, 48 h
Calls of active or inactive are those of the source. No stated cut-off is given here; in the data, active = GI50 up to about 1.1 µM and inactive = higher. *1 amine or outer side, *2 acyl side, *3 side chain or, on linkers, in order; H or OH if unused. Where a SMILES comes first, the peptide text is derived from it. [ ]: non-standard residue; d: D form. The star is where a group is joined. X31 = CC(=O)N(C)SCC(N[*:1])C(=O)[*:2]; Fmoc = O=C(OCC1c2ccccc2-c2ccccc21)*; For = O=C*
Outcomes: T = active, F = inactive

[
  {
    "molecule": "NC1=C(O)c2cccc3cccc(c23)C1=O",
    "class": "F"
  },
  {
    "molecule": "CCCCCCCCCCC(=O)CCCCCCC(=O)O",
    "class": "F"
  },
  {
    "molecule": "Cc1nn(-c2ccccc2)c2c1N=C(C(=O)O)CC(c1ccccc1)=N2",
    "class": "F"
  },
  {
    "molecule": "O=Cc1coc2ccccc2c1=O",
    "class": "F"
  },
  {
    "molecule": "CC#CCCCC1(C)CCCNC1=S (stereo not drawn)",
    "class": "F"
  },
  {
    "molecule": "CCOC(=O)C1C(=O)CC1(C)C (stereo not drawn)",
    "class": "F"
  },
  {
    "molecule": "Cc1nc2cc3ccccc3cc2[nH]c1=O",
    "class": "F"
  },
  {
    "molecule": "CN1CC2=C(N=C(S)NC2c2ccccc2Cl)/C(=C/c2ccccc2Cl)C1 (stereo not drawn)",
    "class": "F"
  },
  {
    "molecule": "COc1cc(C=O)c(-c2cc3c(cc2C=O)OCO3)c(OC)c1OC",
    "class": "F"
  },
  {
    "molecule": "O=c1oc2ccc(-n3c(=O)c4ccccc4c4ccccc4c3=O)cc2c2ccccc12",
    "class": "F"
  },
  {
    "molecule": "O=C(O/N=c1/ccc(=O)/c(=N\\OC(=O)c2ccccc2)c1=O)c1ccccc1",
    "class": "F"
  },
  {
    "molecule": "Cn1c2ccccc2c(=O)c2cccc(C(=O)NC(CS)C(=O)O)c21 (stereo not drawn)",
    "class": "F"
  },
  {
    "molecule": "CC(=O)N(C)SCC(NC(=O)C(Cc1ccccc1)NC(=O)OCC1c2ccccc2-c2ccccc21)C(=O)NC(Cc1ccccc1)C(=O)NC(Cc1cn(C=O)c2ccccc12)C(=O)NC(CCCCNC(=O)OCC1c2ccccc2-c2ccccc21)C(=O)NC(C(=O)NC(CSN(C)C(C)=O)C(=O)NC(C(N)=O)C(C)O)C(C)O (stereo not drawn) (Fmoc-F[X31]FW(For)K(Fmoc)T[X31]T-NH2; configuration not given here)",
    "class": "F"
  },
  {
    "molecule": "N#CC(C#N)=CSc1ccccc1",
    "class": "F"
  },
  {
    "molecule": "Cc1[nH]n(-c2ccccc2)c(=O)c1C(N(CCc1ccccc1)C1=NCC(C)S1)(C(F)(F)F)C(F)(F)F (stereo not drawn)",
    "class": "T"
  },
  {
    "molecule": "Cc1nc2ccccc2nc1N1CCCC1",
    "class": "F"
  },
  {
    "molecule": "O=C1NC(=O)C2C(=O)NC(=O)C1C2c1c(Cl)cccc1Cl (stereo not drawn)",
    "class": "F"
  },
  {
    "molecule": "N/N=C(\\C(=O)Nc1ccc([N+](=O)[O-])cc1)C(C1=Nc2cc([N+](=O)[O-])ccc2NC1)[N+](=O)[O-] (stereo not drawn)",
    "class": "F"
  },
  {
    "molecule": "OC(C1CCCC1=N/N=C1/CCCC1C(O)(C(F)(F)Cl)C(F)(F)Cl)(C(F)(F)Cl)C(F)(F)Cl (stereo not drawn)",
    "class": "F"
  },
  {
    "molecule": "CCN(CC)CC(=O)O[C@]1(CC)C(=O)OCc2c1cc1n(c2=O)Cc2cc3ccccc3nc2-1",
    "class": "T"
  },
  {
    "molecule": "COc1cc(C2C3=C(COC3=O)Oc3cc4c(cc32)OCO4)cc(OC)c1OC(C)=O (stereo not drawn)",
    "class": "T"
  },
  {
    "molecule": "CC1(C)C2CCC(O)(C2)C1N (stereo not drawn)",
    "class": "F"
  },
  {
    "molecule": "CCC(C#N)NCc1ccc(CNC(C#N)CC)cc1 (stereo not drawn)",
    "class": "F"
  },
  {
    "molecule": "CCOCc1nc2c(OC)c(-c3nc4ccc(N5CCN(C)CC5)cc4[nH]3)cc(OC)c2[nH]1",
    "class": "F"
  },
  {
    "molecule": "CCOC(=O)Cc1cc(OC)c(OC)cc1/C(Cl)=C(\\CO)c1ccc(OC)c(OC)c1",
    "class": "F"
  },
  {
    "molecule": "Nc1nc(O)c2[nH]cnc2[n+]1[O-]",
    "class": "F"
  },
  {
    "molecule": "COC(=O)[C@H](Cc1ccccc1)NP(=O)(O)OCC1OC(n2cc(C)c(=O)[nH]c2=O)CC1N=[N+]=[N-] (stereo partly drawn)",
    "class": "F"
  },
  {
    "molecule": "O=C(Nc1ccc(Cl)c(Cl)c1)C(=O)C(C(=O)c1ccccc1F)C1OC(=O)c2ccccc21 (stereo not drawn)",
    "class": "F"
  },
  {
    "molecule": "COc1cc([C@@H]2c3cc4c(cc3[C@@H](NC(=O)c3ccc(OC(C)=O)cc3)C3COC(=O)[C@@H]32)OCO4)cc(OC)c1O (stereo partly drawn)",
    "class": "F"
  },
  {
    "molecule": "CCCCNC(=S)Nc1nc(C(=O)NNC(=S)NCc2ccccc2)cs1",
    "class": "F"
  },
  {
    "molecule": "COc1ccc(/C(C#N)=C(/N)SCc2ccccc2Cl)cc1",
    "class": "F"
  },
  {
    "molecule": "O=C(O)c1c([N+](=O)[O-])cc(C(F)(F)F)cc1[N+](=O)[O-]",
    "class": "F"
  },
  {
    "molecule": "CC(C)CCNc1ncnc2[nH]ncc12",
    "class": "F"
  }
]
